Tested on: KM12 colon
Assay: NCI tumour cell line growth inhibition, 48 h
MEASUREMENT NAME: GI50

- COc1cccc(C2CC(=O)Nc3c2c(C)nn3-c2nc3ccccc3[nH]2)c1OC (stereo not drawn): 4170 nM

Query string: Tell us which GI50 value is on record for CCc1ccc2c(c1)C(=O)c1c-2n(CCCN)c(=O)c2cc(OC)c(OC)cc12
Result string: 1410 nM

Query string: Tell us which GI50 value is on record for Cc1cc(N2CCC(N3CCCC3)CC2)nc(/N=C(\N)Nc2ccc(Cl)c(Cl)c2)n1
Result string: 1720 nM

---

Entries and their TGI
Tested on: HT29 colon
Test: NCI tumour cell line growth inhibition, 48 h

* COC(=O)c1ccccc1C1CN=NC12Cc1ccc(C)cc1C2=O (centres undefined) | > 100 µM
* COC(=O)CC1(O)C(=O)OCc2c1cc1n(c2=O)Cc2c-1nc1ccccc1c2OC (centres undefined) | > 100 µM

Query string: Tell us which TGI value is on record for CC(=O)N[C@@H](Cc1ccc(O)cn1)C(=O)NCc1ccc(Cl)cc1
Result string: > 100 µM

Query string: Tell us which TGI value is on record for O=C1C(Cl)=C(Nc2ccc(S(=O)(=O)c3ccc(NC4=C(Cl)C(=O)c5ccccc5C4=O)cc3)cc2)C(=O)c2ccccc21
Result string: 5.02 µM

Query string: Tell us which TGI value is on record for O/N=C\c1c2c(cc3c1CCC3)CCC2
Result string: > 100 µM

Query string: Tell us which TGI value is on record for CC(C)=C[C@@H]1C[C@H](C)[C@H]2CC[C@H](C)c3c(O)c(OC4OC(C)C(O)C(O)C4O)c(C)c1c32 (some centres undefined)
Result string: 15.6 µM

Query string: Tell us which TGI value is on record for c1ccc(C(Oc2noc3ccccc23)c2ccccc2)cc1
Result string: > 100 µM

Query string: Tell us which TGI value is on record for O=C1Cc2cc3ccccc3nc2-c2ccccc2N1
Result string: > 100 µM

Query string: Tell us which TGI value is on record for CC1(C)N=C(N)N=C(N)N1c1ccc(CCCC(=O)Nc2ccc(S(=O)(=O)F)cc2)cc1
Result string: > 100 µM

Query string: Tell us which TGI value is on record for Nc1nc(Cl)c2ncn(CCCC(c3ccccc3)P(=O)(O)O)c2n1 (centres undefined)
Result string: > 100 µM

Query string: Tell us which TGI value is on record for Cc1c(C#N)c2nnn(-c3cccc(Cl)c3)c(=O)n2c1-c1ccccc1
Result string: 9.18 µM

Query string: Tell us which TGI value is on record for Cc1nn2c(=O)c([N+](=O)[O-])c(/C=C/c3ccc(F)cc3)nc2s1
Result string: 16.5 µM

Query string: Tell us which TGI value is on record for CC1CC(=O)N(N(C)C)C2(C#N)C(=O)N=C(N)C12C#N (centres undefined)
Result string: > 100 µM

Query string: Tell us which TGI value is on record for Cc1c2cc[n+](Cc3ccc(I)cc3)cc2c(C)c2c1[nH]c1ccccc12
Result string: > 25 µM

Query string: Tell us which TGI value is on record for CCCCNc1ncnc2c1cnn2-c1ccccc1
Result string: 13.8 µM

Query string: Tell us which TGI value is on record for Nc1cccc(-c2cc(=O)c3cc4c(cc3[nH]2)OCO4)c1
Result string: 4.25 µM

Query string: Tell us which TGI value is on record for COc1cc2c(c(OC)c1OC)-c1cc(I)c(O)cc1[C@@H](NC(C)=O)CC2
Result string: 10.7 µM

Query string: Tell us which TGI value is on record for CSc1c(C(C)=O)c(O)n(-c2ccc(C)cc2)c(=O)c1C#N
Result string: > 100 µM

Query string: Tell us which TGI value is on record for [O]=[Sn]([CH]1CCCCC1)[CH]1CCCCC1
Result string: 0.866 µM

Query string: Tell us which TGI value is on record for COc1cc(-c2nc(-c3ccccc3)c(-c3ccccc3)[nH]2)cc(OC)c1O
Result string: 35.6 µM

Source: PubChem BioAssay (NCI)
